- target_or_test_system: Rat liver microsomal squalene synthetase (Rattus norvegicus)
- Construct: Rat liver microsome, the source of enzyme; from tissue; host or cells: rat liver microsomes
- experiment_description: In vitro inhibition of squalene synthetase
- Assay type: biochemical
- test_parameters: 10 µM test compound; rat liver microsomes, labelled farnesyl pyrophosphate, 10 minutes at 37 °C; compared to controls with no test compound
Respond with yes for inhibition at 10 µM values of 50% and above, no for values below.

{"compound": "CCCN(Cc1ccc(Oc2ccccc2)cc1)C(=O)[C@@H]1[C@H](C(=O)O)[C@@H](NS(=O)(=O)C(F)(F)F)[C@H]1C(=O)N(CCC)Cc1ccc(Oc2ccccc2)cc1 (relative stereo) [Example 100C]", "assigned_class": "yes"}
{"compound": "O=C(O)[C@H]1[C@H](C(=O)O)[C@H](C(=O)N(CCc2ccccc2)Cc2ccc(Oc3ccccc3)cc2)[C@H]1C(=O)N(CCc1ccccc1)Cc1ccc(Oc2ccccc2)cc1", "assigned_class": "yes"}
{"compound": "CCCN(Cc1ccc(Oc2ccccc2)cc1)C(=O)[C@H]1[C@@H](C(=O)O)[C@H](C(=O)O)[C@@H]1C(=O)NCc1ccc(Oc2ccccc2)cc1 [Example 64D]", "assigned_class": "no"}
{"compound": "CCCN(C(=O)[C@H]1[C@@H](C(=O)O)[C@H](C(=O)O)[C@@H]1C(=O)N(CCC)c1ccc(Nc2ccccc2)cc1)c1ccc(Nc2ccccc2)cc1 [Example 66C]", "assigned_class": "no"}
{"compound": "CN(Cc1cccc(Oc2ccc(F)cc2)c1)C(=O)[C@H]1[C@@H](C(=O)O)[C@H](C(=O)O)[C@@H]1C(=O)N(C)Cc1cccc(Oc2ccc(F)cc2)c1", "assigned_class": "yes"}
{"compound": "CCCN(Cc1ccc(Oc2ccccc2)cc1)C(=O)C1C(CO)C(C(=O)O)C1C(=O)N(CCC)Cc1ccc(Oc2ccccc2)cc1 (stereo not shown) [Example 70B]", "assigned_class": "yes"}

====

- target_or_test_system: Rat liver microsomal squalene synthetase (Rattus norvegicus, UniProt Q02769)
- Construct: Rat liver microsome, the source of enzyme; from tissue; host or cells: rat liver microsomes
- Sequence (Q02769 whole entry): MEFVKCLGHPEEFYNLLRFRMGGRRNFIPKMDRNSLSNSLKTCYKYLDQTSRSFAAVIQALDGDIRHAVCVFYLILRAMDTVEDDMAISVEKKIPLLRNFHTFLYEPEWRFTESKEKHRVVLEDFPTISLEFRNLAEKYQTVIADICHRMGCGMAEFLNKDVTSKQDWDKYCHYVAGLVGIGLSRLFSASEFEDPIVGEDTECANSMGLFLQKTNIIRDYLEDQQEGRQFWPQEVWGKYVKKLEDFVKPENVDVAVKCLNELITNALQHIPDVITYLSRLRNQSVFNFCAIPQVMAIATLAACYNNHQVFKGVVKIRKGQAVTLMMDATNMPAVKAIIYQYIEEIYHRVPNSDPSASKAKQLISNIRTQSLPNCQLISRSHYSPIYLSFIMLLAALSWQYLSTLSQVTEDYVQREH
- experiment_description: In vitro inhibition of squalene synthetase
- Assay type: biochemical
- test_parameters: values marked * in Table 1: 1 µM test compound; rat liver microsomes, labelled farnesyl pyrophosphate, 10 minutes at 37 °C
# if value of inhibition at 1 µM reaches 60%, tag fulfilled; if it stays below, tag not fulfilled

{"compound": "CCCN(Cc1ccc(Oc2ccccc2)cc1)C(=O)C1C(C(=O)O)C(C(O)C(=O)O)C1C(=O)N(CCC)Cc1ccc(Oc2ccccc2)cc1 (stereo not drawn) [Example 78B]", "assigned_class": "fulfilled"}
{"compound": "CCOC(=O)CCN(Cc1ccc(Oc2ccccc2)cc1)C(=O)[C@H]1[C@@H](C(=O)O)[C@H](C(=O)O)[C@@H]1C(=O)N(CCC(=O)OCC)Cc1ccc(Oc2ccccc2)cc1 [Example 60]", "assigned_class": "fulfilled"}
{"compound": "O=C(O)C1C(C(=O)O)C(C(=O)N(Cc2ccc(Oc3ccccc3)cc2)Cc2cccs2)C1C(=O)N(Cc1ccc(Oc2ccccc2)cc1)Cc1cccs1 (stereo not drawn) [Example 45]", "assigned_class": "not fulfilled"}
{"compound": "CCCN(Cc1ccc(COc2ccccc2)cc1)C(=O)C1C(C(=O)O)C(C(=O)O)C1C(=O)N(CCC)Cc1ccc(COc2ccccc2)cc1 (stereo not drawn) [Example 69E]", "assigned_class": "not fulfilled"}
{"compound": "CCCN(Cc1ccc(Oc2ccccc2)cc1)C(=O)C1C(NC(=O)CCC(=O)O)C(C(=O)O)C1C(=O)N(CCC)Cc1ccc(Oc2ccccc2)cc1 (stereo not drawn) [Example 75B]", "assigned_class": "fulfilled"}

====

- target_or_test_system: Rat liver microsomal squalene synthetase (Rattus norvegicus, UniProt Q02769)
- Construct: Rat liver microsome, the source of enzyme; from tissue; host or cells: rat liver microsomes
- experiment_description: In vitro inhibition of squalene synthetase
- Assay type: biochemical
- test_parameters: values marked * in Table 1: 1 µM test compound; rat liver microsomes, labelled farnesyl pyrophosphate, 10 minutes at 37 °C
Let's look at some compounds and their measured inhibition at 1 µM.

{"compound": "CCCN(Cc1ccc(Oc2ccccc2)cc1)C(=O)CC1C(CC(=O)N(CCC)Cc2ccc(Oc3ccccc3)cc2)C(C(=O)O)C1C(=O)O (stereo not drawn) [Example 127C]", "unit_text": "%", "inhibition at 1 µM": 68}
{"compound": "CCSCCN(Cc1ccc(Oc2ccccc2)cc1)C(=O)C1C(C(=O)O)C(C(=O)O)C1C(=O)N(CCSCC)Cc1ccc(Oc2ccccc2)cc1 (stereo not drawn) [Example 42]", "unit_text": "%", "inhibition at 1 µM": 81}
{"compound": "CCCN(Cc1ccc(Oc2nccs2)cc1)C(=O)C1C(C(=O)O)C(C(=O)O)C1C(=O)N(CCC)Cc1ccc(Oc2nccs2)cc1 (stereo not drawn) [Example 85]", "unit_text": "%", "inhibition at 1 µM": 56}
{"compound": "O=C(O)CC1C(CC(=O)O)C(C(=O)N(Cc2ccccc2)Cc2ccc(Oc3ccccc3)cc2)C1C(=O)N(Cc1ccccc1)Cc1ccc(Oc2ccccc2)cc1 (stereo not drawn) [Example 128F]", "unit_text": "%", "inhibition at 1 µM": 80}
{"compound": "C=CCN(Cc1ccc(Oc2ccccc2)cc1)C(=O)[C@H]1[C@@H](C(=O)O)[C@H](C(=O)O)[C@@H]1C(=O)N(CC=C)Cc1ccc(Oc2ccccc2)cc1 [Example 29]", "unit_text": "%", "inhibition at 1 µM": 72}
{"compound": "O=C(O)C1C(C(=O)O)C(C(=O)N(Cc2ccc(Oc3ccccc3)cc2)C2CCC2)C1C(=O)N(Cc1ccc(Oc2ccccc2)cc1)C1CCC1 (stereo not drawn) [Example 48]", "unit_text": "%", "inhibition at 1 µM": 79}
{"compound": "C[C@H](c1ccccc1)N(Cc1ccc(Oc2ccccc2)cc1)C(=O)[C@H]1[C@@H](C(=O)O)[C@H](C(=O)O)[C@@H]1C(=O)N(Cc1ccc(Oc2ccccc2)cc1)[C@H](C)c1ccccc1 [Example 35]", "unit_text": "%", "inhibition at 1 µM": 59}
{"compound": "O=C(O)[C@H]1[C@H](C(=O)O)[C@H](C(=O)N(Cc2ccc(Oc3ccccc3)cc2)CC2CCCCC2)[C@H]1C(=O)N(Cc1ccc(Oc2ccccc2)cc1)CC1CCCCC1 [Example 31]", "unit_text": "%", "inhibition at 1 µM": 37}
{"compound": "CCCN(Cc1ccc(Oc2ccccc2)cc1)C(=O)C1C(C(=O)O)C(C(=O)Nc2nnn[nH]2)C1C(=O)N(CCC)Cc1ccc(Oc2ccccc2)cc1 (stereo not drawn) [Example 92B]", "unit_text": "%", "inhibition at 1 µM": 80}
{"compound": "CCCN(Cc1ccc(Sc2ccccc2)cc1)C(=O)C1C(C(=O)O)C(C(=O)O)C1C(=O)N(CCC)Cc1ccc(Sc2ccccc2)cc1 (stereo not drawn) [Example 68B]", "unit_text": "%", "inhibition at 1 µM": 84}
{"compound": "CCCN(Cc1ccc(Oc2ccccc2)cc1)C(=O)C1C(CCC(=O)O)C(C(=O)O)C1C(=O)N(CCC)Cc1ccc(Oc2ccccc2)cc1 (stereo not drawn) [Example 77B]", "unit_text": "%", "inhibition at 1 µM": 51}
{"compound": "CCCN(Cc1ccc(Oc2ccccc2)cc1)C(=O)C1C(C(=O)O)C(c2nn[nH]n2)C1C(=O)N(CCC)Cc1ccc(Oc2ccccc2)cc1 (stereo not drawn) [Example 72C]", "unit_text": "%", "inhibition at 1 µM": 51}

====

Catalogue of inhibition at 1 µM values
- target_or_test_system: Rat liver microsomal squalene synthetase (Rattus norvegicus, UniProt Q02769)
- Construct: Rat liver microsome, the source of enzyme; from tissue; host or cells: rat liver microsomes
- experiment_description: In vitro inhibition of squalene synthetase
- Type: biochemical
- test_parameters: values marked * in Table 1: 1 µM test compound; rat liver microsomes, labelled farnesyl pyrophosphate, 10 minutes at 37 °C

{"compound": "CSCCN(Cc1ccc(Oc2ccccc2)cc1)C(=O)C1C(C(=O)O)C(C(=O)O)C1C(=O)N(CCSC)Cc1ccc(Oc2ccccc2)cc1 (stereo not drawn) [Example 41B]", "inhibition at 1 µM (%)": 72}
{"compound": "CCCN(Cc1ccc(Oc2ccccc2)cc1)C(=O)C1C(NC(=O)C(=O)O)C(C(=O)O)C1C(=O)N(CCC)Cc1ccc(Oc2ccccc2)cc1 (stereo not drawn) [Example 74D]", "inhibition at 1 µM (%)": 55}
{"compound": "O=C(O)C1C(C(=O)O)C(C(=O)N(Cc2ccc(F)cc2)Cc2ccc(Oc3ccccc3)cc2)C1C(=O)N(Cc1ccc(F)cc1)Cc1ccc(Oc2ccccc2)cc1 (stereo not drawn) [Example 53B]", "inhibition at 1 µM (%)": 63}

====

- target_or_test_system: Rat liver microsomal squalene synthetase (Rattus norvegicus, UniProt Q02769)
- Construct: Rat liver microsome, the source of enzyme; from tissue; host or cells: rat liver microsomes
- experiment_description: In vitro inhibition of squalene synthetase
- Assay type: biochemical
- test_parameters: 10 µM test compound; rat liver microsomes, labelled farnesyl pyrophosphate, 10 minutes at 37 °C; compared to controls with no test compound
Classify by measured inhibition at 10 µM: Yes if it is equal to or exceeds 70%, No if it is smaller.

{"molecule": "O=C(O)[C@H]1[C@H](C(=O)O)[C@H](C(=O)N(CCCCc2ccccc2)Cc2ccc(Oc3ccccc3)cc2)[C@H]1C(=O)N(CCCCc1ccccc1)Cc1ccc(Oc2ccccc2)cc1", "assigned_class": "No"}
{"molecule": "O=C(O)C1C(C(=O)O)C(C(=O)N(Cc2ccccc2)Cc2ccc(Cl)cc2)C1C(=O)N(Cc1ccccc1)Cc1ccc(Cl)cc1 (stereo not shown) [Example 122B]", "assigned_class": "No"}
{"molecule": "CCCN(Cc1ccc(Oc2ccccc2)cc1)C(=O)[C@H]1[C@@H](C(=O)O)[C@H](C(=O)O)[C@@H]1C(=O)N(C)CC/C=C(\\C)CCC=C(C)C [Example 62B]", "assigned_class": "Yes"}
{"molecule": "O=C(O)[C@H]1[C@H](C(=O)O)[C@H](C(=O)N(Cc2ccc(Oc3ccccc3)cc2)Cc2ccc(Oc3ccccc3)cc2)[C@H]1C(=O)N(Cc1ccc(Oc2ccccc2)cc1)Cc1ccc(Oc2ccccc2)cc1", "assigned_class": "Yes"}
{"molecule": "CCCN(Cc1ccc(Oc2ccccc2)cc1)C(=O)[C@@H]1[C@H](C(=O)O)[C@@H](C(=O)OC)[C@H]1C(=O)N(CCC)Cc1ccc(Oc2ccccc2)cc1 (relative stereo)", "assigned_class": "Yes"}
{"molecule": "CCCN(Cc1ccc(Oc2ccccc2)cc1)C(=O)[C@@H]1[C@H](C(N)=O)[C@@H](C(=O)O)[C@H]1C(=O)N(CCC)Cc1ccc(Oc2ccccc2)cc1 (relative stereo) [Example 99B]", "assigned_class": "Yes"}
{"molecule": "CCCN(Cc1cccc(Oc2ccccc2)c1)C(=O)C1C(C(=O)O)C(C(=O)O)C1C(=O)N(CCC)Cc1cccc(Oc2ccccc2)c1 (stereo not shown) [Example 81B]", "assigned_class": "Yes"}
{"molecule": "O=C(O)[C@H]1[C@H](C(=O)O)[C@H](C(=O)N(Cc2ccc(Oc3ccccc3)cc2)C2CC2)[C@H]1C(=O)N(Cc1ccc(Oc2ccccc2)cc1)C1CC1", "assigned_class": "No"}
{"molecule": "CCCN(Cc1ccc(Oc2cccc3ccccc23)cc1)C(=O)C1C(C(=O)O)C(C(=O)O)C1C(=O)N(CCC)Cc1ccc(Oc2cccc3ccccc23)cc1 (stereo not shown)", "assigned_class": "No"}
{"molecule": "CCCN(Cc1ccc(Oc2ccccc2)cc1)C(=O)C1C(C=NO)C(C(=O)O)C1C(=O)N(CCC)Cc1ccc(Oc2ccccc2)cc1 (stereo not shown) [Example 71C]", "assigned_class": "Yes"}
{"molecule": "CCCN(Cc1ccc(Oc2ccccc2)cc1)C(=O)[C@@H]1[C@H](C(=O)O)[C@@H](C(=O)NO)[C@H]1C(=O)N(CCC)Cc1ccc(Oc2ccccc2)cc1 (relative stereo) [Example 98C]", "assigned_class": "Yes"}
{"molecule": "C#CCN(Cc1ccc(Oc2ccccc2)cc1)C(=O)[C@H]1[C@@H](C(=O)O)[C@H](C(=O)O)[C@@H]1C(=O)N(CC#C)Cc1ccc(Oc2ccccc2)cc1", "assigned_class": "Yes"}
{"molecule": "CCCN(Cc1ccc(Oc2ccc3ccccc3c2)cc1)C(=O)C1C(C(=O)O)C(C(=O)O)C1C(=O)N(CCC)Cc1ccc(Oc2ccc3ccccc3c2)cc1 (stereo not shown)", "assigned_class": "Yes"}
{"molecule": "O=C(O)[C@H]1[C@H](C(=O)O)[C@H](C(=O)N(CC=CC=Cc2ccccc2)Cc2ccccc2)[C@H]1C(=O)N(CC=CC=Cc1ccccc1)Cc1ccccc1", "assigned_class": "No"}
{"molecule": "CCCN(Cc1ccc(Oc2ccccc2)o1)C(=O)C1C(C(=O)O)C(C(=O)O)C1C(=O)N(CCC)Cc1ccc(Oc2ccccc2)o1 (stereo not shown) [Example 82B]", "assigned_class": "No"}
{"molecule": "CCCN(Cc1ccc(Oc2ccc(C)cc2)cc1)C(=O)C1C(C(=O)O)C(C(=O)O)C1C(=O)N(CCC)Cc1ccc(Oc2ccc(C)cc2)cc1 (stereo not shown)", "assigned_class": "No"}
{"molecule": "O=C(O)C1C(C(=O)O)C(C(=O)N(Cc2ccc(Oc3ccccc3)cc2)CC2CC2)C1C(=O)N(Cc1ccc(Oc2ccccc2)cc1)CC1CC1 (stereo not shown) [Example 47B]", "assigned_class": "Yes"}
{"molecule": "COC(=O)CN(Cc1ccc(Oc2ccccc2)cc1)C(=O)[C@H]1[C@@H](C(=O)O)[C@H](C(=O)O)[C@@H]1C(=O)N(CC(=O)OC)Cc1ccc(Oc2ccccc2)cc1", "assigned_class": "No"}
{"molecule": "CCCN(Cc1ccc(Nc2ccccc2)cc1)C(=O)[C@H]1[C@@H](C(=O)O)[C@H](C(=O)O)[C@@H]1C(=O)N(CCC)Cc1ccc(Nc2ccccc2)cc1 [Example 67C]", "assigned_class": "Yes"}
{"molecule": "CCCN(Cc1ccc(Cn2cccc2)cc1)C(=O)C1C(C(=O)O)C(C(=O)O)C1C(=O)N(CCC)Cc1ccc(Cn2cccc2)cc1 (stereo not shown) [Example 86D]", "assigned_class": "Yes"}
{"molecule": "COc1cccc(CCN(Cc2ccc(Oc3ccccc3)cc2)C(=O)C2C(C(=O)O)C(C(=O)O)C2C(=O)N(CCc2cccc(OC)c2)Cc2ccc(Oc3ccccc3)cc2)c1 (stereo not shown) [Example 54B]", "assigned_class": "Yes"}

From: patent EP0677039B1
